target: Cytochrome P450 2C9 (Homo sapiens); assay: blockers of cytochrome P450 2C9 activity – biochemical, luminescence, ADME assay, primary screen (AID 777); conditions: CYP2C9 Supersomes, luciferin-H conversion, at 5 µM
About 19,000 (20%) of roughly 96,000 compounds were called active.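 How the source made its calls: active means blocking of liver enzyme CYP2C9 beyond about 50% at 5 µM (limit read from the data); inactive means the rest.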 Only a sample is shown.
Mark one answer only. Choices: active, inactive

Illustrative cases are given below, each with its answer.
| compound | label class |
| --- | --- |
| COCCN(CC(=O)Nc1ccccc1C)S(=O)(=O)c1ccc(S(=O)(=O)N2CCCC2)cc1 | inactive |
| CCc1c(O)nc(SCC(=O)Nc2ccccc2)n(C(C)CC)c1=O (stereo not given) | inactive |
| O=c1c2c(nc3nc[nH]n13)CCC2 | inactive |
| COc1ccc(OC)c2[nH]c(=O)c(CCNC(=O)C(C)(C)C)cc12 | inactive |
| C=CCn1c(CSc2nc3ccccc3s2)nnc1SCC(=O)NCc1ccco1 | inactive |
| Cc1cc(=O)oc2cc(OC(C)C(=O)Nc3ccc(N4CCOCC4)cc3)ccc12 (stereo not given) | inactive |
| COC(=O)c1ccc(CSc2nc3ccccc3c(=O)n2-c2cccc(OC)c2)o1 | active |
| CC(C)(C)NS(=O)(=O)c1ccc(NC(=O)NC2CCCCC2)cc1 | inactive |

Recorded test call requested for CCc1c(C)nc2cc(C)[nH]n2c1=O
inactive

Query: recorded result category for CC1CCC2(CC1)NC(=O)N(CC(=O)c1cccn1C)C2=O (stereo not given) in this test
inactive

Assay result, entry COc1ccc2c(CC(=O)Nc3nnc(C4CC4)s3)coc2c1 — outcome?
inactive

Outcome logged for CCOC(=O)CCCNC(=O)CN1C(=O)NC(CCc2ccccc2)C1=O (stereo not given) in this assay:
inactive

Please state the recorded outcome for this compound: O=C(CN1C(=O)NC(Cc2ccccc2)(Cc2ccccc2)C1=O)NCC1CCCCC1
active

----------
biological target: Cytochrome P450 2C9 (Homo sapiens); assay: blockers of cytochrome P450 2C9 activity – biochemical, luminescence, ADME assay, primary screen (AID 777); conditions: CYP2C9 Supersomes, luciferin-H conversion, at 5 µM
In all, about 96,000 compounds went through this assay and about 19,000 (20%) were called active.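 The calls were made as follows: active = blocking of liver enzyme CYP2C9 beyond about 50% at 5 µM (limit read from the data); inactive = the rest.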 A selection follows.
Classes to choose from: y for active, n for inactive

Observe how each entry below is paired with its result.
| molecule | label class |
| --- | --- |
| C=CCn1c2ccccc2c2nnc(SC(CC)C(=O)Nc3nc(C)c(C(=O)OCC)s3)nc21 (stereo unspecified) | y |
| CC1(N2CCOCC2)CC2(O)C(=[N+]1[O-])CCc1nonc12 (stereo unspecified) | n |
| CN(CC(=O)Nc1cccc2c1CCCC2)S(=O)(=O)c1ccc(Cl)cc1 | n |
| COC(=O)c1sccc1NC(=O)CSc1ccccc1NS(=O)(=O)c1cc(Cl)ccc1Cl | y |
| CCOC(=O)c1sc(/N=C/Nc2nc(C)c(C(=O)OCC)s2)nc1C | n |
| COCc1nnc(NC(=O)CS(=O)(=O)Cc2ccccc2)s1 | n |
| Cc1nc(NC(=O)CN(C)S(=O)(=O)c2ccc(Cl)cc2)sc1C | y |
| Cc1nc(NC(=O)CCC(=O)O)sc1C(=O)N(C)C | n |
| O=C(CCS(=O)(=O)c1ccccc1)Nc1nc2c(s1)CCCC2 | y |
| Fc1ccc2nc(Nc3nc4c(s3)CCCC4)sc2c1 | n |

What did the test return for CCc1cc2c(N3CCN(c4nnc(CC)s4)CC3)ncnc2s1 ?
y
